- Test system: primary human hepatic stellate cells (donor 1)
- PROCEDURE TEXT: scaled lipid accumulation score (0 = DMSO-like, 1 = nortriptyline-like); higher = stronger HSC inactivation (lipid re-accumulation), active = hit call of the paper
- CONDITION SET: library stock concentration: 3.33 mM; 48 h
Where a name gives a salt, the structure may show the parent alone. Hit rate of the full screen: of about 5,800 compounds, about 620 (11%) showed activity. For the sample, actives were picked, then their nearest neighbours and some compounds at random.
QUANTITY KIND: scaled lipid accumulation score

- O=C(Nc1ccc(-c2ccnc(Nc3ccc(N4CCOCC4)cc3)n2)cc1)C1CCCN1 (stereo unspecified): 0.063 (inactive)
- Cc1ccc(S(=O)(=O)C=CC#N)cc1: 0.718 (inactive)
- Cc1cc(Nc2nc(-c3ccccc3)nc3ccccc23)n[nH]1: ≤ 0 (inactive)
- CCC(C)n1ncn(-c2ccc(N3CCN(c4ccc(OCC5COC(Cn6cncn6)(c6ccc(Cl)cc6Cl)O5)cc4)CC3)cc2)c1=O (stereo unspecified): 0.492 (inactive)
- CN(C)CCC[C@@]1(c2ccc(F)cc2)OCc2cc(C#N)ccc21 [Escitalopram Oxalate]: ≤ 0 (inactive)
- OCC(O)C(O)CO (stereo unspecified): ≤ 0 (inactive)
- COc1cc2nc(N(C)CCCNC(=O)C3CCCO3)nc(N)c2cc1OC (stereo unspecified) [Alfuzosin HCl]: ≤ 0 (inactive)
- O=C(/C=C\n1cnc(-c2cc(C(F)(F)F)cc(C(F)(F)F)c2)n1)N1CC(F)(F)C1: ≤ -0.009 (inactive)
- NC(N)=NCCNS(=O)(=O)c1cccc2cnccc12 [HA 1004, Dihydrochloride]: ≤ 0 (inactive)
- O=C1c2ccccc2-c2nc3nnnn3nc21: 0.462 (inactive)
- c1ccc(Cn2c(-c3ccc(OCC(C4CCNCC4)n4c(-c5ccccc5)nc5ccccc54)cc3)nc3ccccc32)cc1 (stereo unspecified): 0.766 (inactive)
